The values you see were collected from patent US20240166738A1.

- Tgt: GST-TMEM106B (truncated, comprising amino acids 122-210 of SEQ ID NO:1) (Homo sapiens, UniProt Q9NUM4)
- Sequence (Q9NUM4 122-210): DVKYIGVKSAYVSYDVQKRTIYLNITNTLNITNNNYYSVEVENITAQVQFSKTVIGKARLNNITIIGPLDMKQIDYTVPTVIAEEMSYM
- Method Summary: Pre-mix epitope binning of anti-TMEM106B antibodies (Carterra / Lake Pharma)
- Type: binding
- Condition Description: epitope bin number; pre-mix binning on truncated GST-TMEM106B
- Protocol: Monoclonal anti-TMEM106B antibodies were immobilized to a CMD 50M chip (Xantec # SPMXCMD5OM lot# SCCMD50M0416). The running buffer was HBS-EP+ with 1 mg/mL BSA. The GST-TMEM106B (truncated, comprising amino acids 122-210 of SEQ ID NO:1) antigen was prepared at a final concentration of 55 nM (corresponding to 2 μg/mL) and mixed with the competing analyte anti-TMEM106B antibodies at a final concentration of 333 nM (corresponding to 50 μg/mL) or compared to a buffer control. […]
Property: Binding Community/Bin
Answer using only a numeral; do not append any unit.

- Molecule: "TM-88: anti-TMEM106B monoclonal antibody; VH SEQ ID NO: 493, VL SEQ ID NO: 528 (antibody, V domains shown, Variable Heavy Chain -- TM-88; Variable Light Chain -- TM-88) VH: EAQLQQSGPVLVKPGASVKMSCKTSGYTFTDYYINWVKQSHGKSLEWIGVINPYSGATYYTQKFKGKATLTVDKSSSTAYMELNSQTSEDSAVYYCARGGYDYGHWYFDVWGTGTTVTVSS VL: ETTVTQSPASLSMAIGEKVTIRCITSSDIDDHMNWYRQKPGEPPEFLISEGNALRPGVPSRFSSSGYGTDFIFTIENILSEDVADYYCLQSDNLPLTFGAGTKLELK"
  Property: "Binding Community/Bin"
  Experimental Value: 4

Would you kindly look at the next entry?
[ask] Look up Binding Community/Bin: TM-18: anti-TMEM106B monoclonal antibody; CDR-H1-3 SEQ ID NO: 5, 52, 95; CDR-L1-3 SEQ ID NO: 135, 174, 199 (antibody, V domains shown) VH: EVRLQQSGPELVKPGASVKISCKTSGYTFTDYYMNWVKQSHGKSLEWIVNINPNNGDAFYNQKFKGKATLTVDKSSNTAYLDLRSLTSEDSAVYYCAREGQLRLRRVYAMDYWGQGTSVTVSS VL: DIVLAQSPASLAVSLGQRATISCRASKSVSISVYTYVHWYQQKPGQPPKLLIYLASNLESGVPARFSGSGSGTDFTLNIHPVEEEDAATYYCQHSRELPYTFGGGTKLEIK
[reply] 2
